system: L1210 leukemia ip in BDF1 mice, survival T/C; assay: NCI In Vivo Anticancer Drug Screen. Data for tumor model L1210 Leukemia (intraperitoneal) in B6D2F1 (BDF1) mice; settings: endpoint: mean survival time; dose: 12.5 mg/kg/injection; schedule: Q01DX009 (ip); vehicle: Klucel (hydroxypropylcellulose) (HPC); higher = longer survival
Inconclusive results and toxic doses are left out.
test_readout: T/C

# count of solved cases: 3
O=C(Nc1ccc(CCO)cc1)Nc1cc([N+](=O)[O-])ccc1Cl = 102 % of control
CC(C)C[CH2][Pb]([CH2]CC(C)C)([CH2]CC(C)C)[O]C(=O)C(Cl)(Cl)Cl = 98 % of control
O=C(O)CCSSc1ccc([N+](=O)[O-])cc1[N+](=O)[O-] = 96 % of control

Query: Given the molecule "BrCc1cc2ccccc2cc1CBr" , write its reported T/C.
Reply: 98 % of control

Query: For the molecule "S=C(NCN1CCNCC1)C(=S)NCN1CCNCC1" , give its reported T/C.
Reply: 97 % of control

Query: Specify reported T/C for the molecule shown: "Br[C](Br)(Br)[Hg][c]1ccccc1"
Reply: 93 % of control

Query: Tell me T/C reported for "Cc1cc(NC(=O)Nc2ccc(Cl)cc2C)no1"
Reply: 102 % of control

----------
system: L1210 leukemia ip in BDF1 mice, survival T/C; assay: NCI In Vivo Anticancer Drug Screen. Data for tumor model L1210 Leukemia (intraperitoneal) in B6D2F1 (BDF1) mice; conditions: endpoint: mean survival time; dose: 400.0 mg/kg/injection; schedule: Q01DX001 (ip); vehicle: carboxymethylcellulose (CMC); higher = longer survival
Inconclusive results and toxic doses are left out.
Form field: T/C (one value per entry).

CN(C)C1c2cc(Br)ccc2-c2ccc([N+](=O)[O-])cc21 (stereo unspecified) = 100 % of control
O=[N+]([O-])c1ccccc1C1OCCO1 = 93 % of control
CC1([N+](=O)[O-])COP(=O)(Nc2ccccc2F)OC1 (stereo unspecified) = 104 % of control
CCCCC(=O)N/N=C\c1c(O)cc(OC)cc1OC = 93 % of control
COc1ccc2c(c1)CC1(CC2)NCC(=O)NC1=O (stereo unspecified) = 115 % of control

Query: Write down T/C measured for item "CCCCCCSC1=C(SCCCCCC)C(=O)c2[nH]cnc2C1=O"
Reply: 90 % of control

Query: Please give the documented T/C of "COc1cc(/C=C2\CCNC2=O)ccc1OCc1ccccc1"
Reply: 103 % of control

Query: Give T/C for "Nc1nc(C(=O)O)cc(=O)[nH]1"
Reply: 96 % of control

Query: Supply measured T/C of "COc1ccc(OC)c2c1C=CCC2" in your reply.
Reply: 104 % of control

Query: Item "O/N=C1\c2cc(Cl)ccc2-c2c(Cl)cc(Cl)cc21" : provide T/C
Reply: 97 % of control

Query: Look up and report measured T/C for this entry: "CCCNC(=O)Nc1ccc(C)cc1"
Reply: 103 % of control

----------
tested on: L1210 leukemia ip in BDF1 mice, survival T/C; experiment: NCI In Vivo Anticancer Drug Screen. Data for tumor model L1210 Leukemia (intraperitoneal) in B6D2F1 (BDF1) mice; settings: endpoint: mean survival time; dose: 25.0 mg/kg/injection; schedule: Q04DX003 (ip); vehicle: saline with Tween-80; higher = longer survival
Toxic doses and inconclusive results are not listed. Peptide text beside a SMILES is read from it. * marks the point of attachment. Cbz = O=C(OCc1ccccc1)*
test_readout: T/C

CCOC(=O)C(C(=N)C#N)C(C)=O (stereo not given) = 97 % of control
CNC(C)(C)C(SSSC(c1ccc(Cl)cc1)C(C)(C)NC)c1ccc(Cl)cc1 (stereo not given) = 100 % of control
Cc1cc(N(CCCOS(C)(=O)=O)CCCOS(C)(=O)=O)ccc1C=Nc1ccc2ccccc2c1 = 98 % of control
N#CC(C#N)=Cc1ccnc2ccccc12 = 104 % of control

Now consider a different compound.
Query: Return T/C for the following compound: COC(=O)C(NC(=O)C1CCCN1C(=O)OCc1ccccc1)C(C)C (stereo not drawn) (Cbz-Pro-Val-OMe; configuration not given here)
Reply: 95 % of control

----------
Recorded T/C, one value per entry.
tested on: L1210 leukemia ip in BDF1 mice, survival T/C; experiment: NCI In Vivo Anticancer Drug Screen. Data for tumor model L1210 Leukemia (intraperitoneal) in B6D2F1 (BDF1) mice; conditions: endpoint: mean survival time; dose: 100.0 mg/kg/injection; schedule: Q01DX009 (ip); vehicle: saline with Tween-80; higher = longer survival
Inconclusive results and toxic doses are left out.

CC=C(C)c1ccccc1 (mixture of isomers) = 123 % of control
COC(=O)c1ccccc1NC(=O)Nc1ccccc1C(F)(F)F = 89 % of control
OC(c1ccccc1)(c1ccccc1)C1CCc2cc3ccccc3nc21 (stereo unspecified) = 98 % of control
CCCC(C)(COC(N)=O)COC(N)=O = 93 % of control
COc1cc2c(cc1OC)CN1CCc3cc(OC)c(OC)cc3C1C2 (stereo unspecified) = 93 % of control

Next up:
Query: Name the recorded T/C of the item "OCCN1CCC2(CC1)SSC1(CCN(CCO)CC1)S2" in your answer.
Reply: 98 % of control

----------
tested on: L1210 leukemia ip in BDF1 mice, survival T/C; assay: NCI In Vivo Anticancer Drug Screen. Data for tumor model L1210 Leukemia (intraperitoneal) in B6D2F1 (BDF1) mice; details: endpoint: mean survival time; dose: 100.0 mg/kg/injection; schedule: Q01DX009 (ip); vehicle: saline with Tween-80; higher = longer survival
Inconclusive results and toxic doses are left out.
test_readout: T/C

COc1ccc(C)cc1NC(=O)SCc1ccccc1 = 100 % of control
COc1ccc(NC2=NCCS2)cc1 = 95 % of control
CCCCCCCCOc1ccc(C(=O)O)cc1 = 96 % of control

Query: Give recorded T/C. C[Si](C)(C)C1C=Cc2ccccc2C1[Si](C)(C)C (stereo unspecified)
Reply: 94 % of control

Query: Give T/C for CC1CCC2=CC(=O)CCC2(C)C1C (stereo unspecified)
Reply: 101 % of control

Query: Give me measured T/C, please, for this compound: "CCCCCCCCCCCCCCCCCCSC(=N)N"
Reply: 100 % of control

Query: Given the compound "CCCCCCCC/C=C\CCCCCCCC(=O)OCCCCC" , write its reported T/C.
Reply: 108 % of control

Query: Specify measured T/C for "N#CCCCOc1cccc([N+](=O)[O-])c1" .
Reply: 93 % of control

Query: State, in one line, measured T/C of CC(=O)OC1CCC2(C)C(=CCC3C2CCC2(C)C(OC(=O)c4ccccc4)CCC32)C1 (stereo unspecified)
Reply: 89 % of control

Query: Quickly give me recorded T/C for "Cc1ccc(S(=O)(=O)Nc2ccc(Nc3ccccc3)cc2)cc1"
Reply: 94 % of control

Query: Give a short answer stating reported T/C for "Cc1ccc(C(=O)O)cc1" .
Reply: 90 % of control

----------
system: L1210 leukemia ip in BDF1 mice, survival T/C; experiment: NCI In Vivo Anticancer Drug Screen. Data for tumor model L1210 Leukemia (intraperitoneal) in B6D2F1 (BDF1) mice; conditions: endpoint: mean survival time; dose: 400.0 mg/kg/injection; schedule: Q04DX003 (ip); vehicle: Klucel (hydroxypropylcellulose) (HPC); higher = longer survival
Toxic doses and inconclusive results are not listed.
test_readout: T/C

Examples from the recorded data:
Cc1ccc(OC(=O)/C=C/C(=O)Oc2ccc(C)cc2)cc1 = 108 % of control
CC1=NN(c2ccccc2)C(=O)CC1 = 105 % of control
CC(=O)O[C@H]1CC[C@@]2(C)C(=CC[C@H]3[C@@H]4CC[C@H](O)[C@@]4(C)CC[C@@H]32)C1 = 96 % of control
O=[N+]([O-])c1ccc(N2CCCC2)c([N+](=O)[O-])c1 = 99 % of control
O=C(Cc1cccc2ccccc12)NO = 104 % of control

Query: Answer with the recorded T/C of CCOC(=O)C1C2OC(=O)C(C(=O)C2C(C2CC=CCC2)N(CCCl)CCCl)C1c1ccc(OC(C)=O)cc1 (stereo unspecified) only.
Reply: 98 % of control

Query: Give the reported value of T/C for this record: "NC(=O)c1ccccc1C(N)=O"
Reply: 100 % of control

Query: Output measured T/C for this item: CCOC(=O)C1CCC(NC(=O)c2ccccc2)CC1 (stereo unspecified)
Reply: 94 % of control

Query: Specify measured T/C for "O=C(O)COc1ccc(Cl)cc1CCl" .
Reply: 102 % of control

Query: Give a short answer stating reported T/C for "CC(=O)NCCCOc1ccc([N+](=O)[O-])cc1Cl" .
Reply: 103 % of control

Query: // fetch T/C given entry "O=S(=O)(Nc1ccc(NS(=O)(=O)c2ccccc2)cc1)c1ccccc1"
Reply: 90 % of control
